Exercise: for every item that follows, state its recorded Ki.
# measured target: Human Neutrophil Elastase (HNE) (Homo sapiens, UniProt P08246)
# Sequence (P08246 30-267): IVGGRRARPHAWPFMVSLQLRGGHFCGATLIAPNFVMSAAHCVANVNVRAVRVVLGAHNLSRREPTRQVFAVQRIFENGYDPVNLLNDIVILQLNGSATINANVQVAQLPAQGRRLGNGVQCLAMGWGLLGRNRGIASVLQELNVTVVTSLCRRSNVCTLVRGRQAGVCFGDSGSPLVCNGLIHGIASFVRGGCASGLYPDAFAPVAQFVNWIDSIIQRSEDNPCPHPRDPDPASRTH
# method description: Inhibitory effects on human neutrophil elastase (HNE)
# conditions: Dixon plot; substrate MeO-Suc-Ala-Ala-Pro-Val-p-nitroanilide; 0.1 M HEPES buffer pH 8.0; 37° C.
Give bare numbers, in nM.

                                   compound  observed
0  COC(=O)N[C@H](C(=O)N1CCC[C@H]1C(=O)N[C@H](C(=O)c1nn(Cc2ccsc2)c(=O)o1)C(C)C)C(C)C [Example 1]      4.27

IN: GET /values?readout=Ki&item= COC(=O)N[C@H](C(=O)N1CCC[C@H]1C(=O)N[C@H](C(=O)c1nn(-c2ccccc2)c(=O)o1)C(C)C)C(C)C [Example 2]
OUT: 3.41
